Please provide measured growth for the entries that follow.
# System: MCF7 breast
# PROCEDURE SUMMARY: NCI-60 one-dose screen, 48 h (100 = growth as untreated, 0 = no growth, -100 = all killed)
# PROTOCOL CONDITIONS: 10 µM unless noted
About 83,000 compounds went through this panel and 20% of them were active in at least one assay; those are over-represented in the sample as a whole.
One number for each entry, in %.

CCN1CCN(Cc2ccc(NC(=O)Nc3cccc(-n4ccc5c(NC(=O)c6ccccc6)nccc54)c3)cc2C(F)(F)F)CC1; 31.4
O=c1c2ccccc2[nH]n1Cc1ccc2c(c1)OCO2; 90.8

Task: Look up growth for this molecule: `Cc1cc(-c2ccccc2)nc2ccccc12`
Output: 65.1

----------
# Tested on: DU-145 prostate
# PROCEDURE SUMMARY: NCI-60 one-dose screen, 48 h (100 = growth as untreated, 0 = no growth, -100 = all killed)
# PROTOCOL CONDITIONS: 10 µM unless noted
# Description: Cells are grown in 96 well plates and exposed to the test compound for 48 hours. Compounds are tested at a single concentration, which is 10^-5 M for most compounds. The reported endpoint is percent growth (GI% or GIPRCNT), where numbers from 0 - 100% represent growth inhibition, and numbers from -100% - 0 represent cell death. For example, a value of 40 represents 60% growth inhibition. A value of 0 means no net growth occurred over the course of the experiment. […]
The panel holds about 83,000 compounds, 20% with a hit somewhere; the sample as a whole holds those more often.
Please use Y whenever growth is not below 50%, and N whenever it is.

Answered cases to consult:
C#C[C@H](O)/C=C/CCCCCCC#C[C@H](O)CC[C@@H](O)C#CCCCCCC/C=C/[C@@H](O)C#C; Y
CC(=O)Oc1ccc(C(OC(C)=O)OC(C)=O)cc1; Y
CO[C@H]1/C=C/C=C/C=C/C[C@H](OC(=O)[C@@H](C)NC(=O)C2CCCCC2)[C@H](C)[C@@H](O)/C(C)=C\CCC2=CC(=O)C=C(NC(=O)C1)C2=O; N
COc1cc(Br)c(-c2nc(-c3ccccc3)c(-c3ccccc3)n2Cc2ccccc2)cc1OC; Y
Nc1ncc(-c2ccc3ncnc(Nc4ccc(F)c(Cl)c4)c3c2)cn1; N
C=C1c2c(Cl)ccc(O)c2C(O)=C2C(=O)[C@]3(O)C(O)=C(C(N)=O)C(=O)[C@@H](N(C)C)[C@@H]3[C@@H](O)[C@H]12; N

Task: Threshold query (growth >= 50%) on `NC(=O)C1=C[C@H]2[C@H]3C=C[C@@]2(O)C(=O)O[C@@H]3O1`
Output: N

----------
# Tested on: OVCAR-5 ovarian
# PROCEDURE SUMMARY: NCI-60 one-dose screen, 48 h (100 = growth as untreated, 0 = no growth, -100 = all killed)
# PROTOCOL CONDITIONS: 10 µM unless noted
The panel holds about 83,000 compounds, 20% with a hit somewhere; the sample as a whole holds those more often.
MEASURED METRIC: growth (%)
Numbers only, in %.

Nc1ncnc2c1c(-c1ccc(Oc3ccccc3)cc1)nn2C[C@@H]1SSC[C@H]1O; 80.8
CCOc1ccc(-n2c(-c3cc(OC)c(OC)c(OC)c3)nnc2-c2ccc(OC)cc2N)cc1; 95.5

Report growth for each item below.
1. CCCCCCCC(=O)SCC/C=C/[C@@H]1CC(=O)NCc2nc(cs2)C2=N[C@@](C)(CS2)C(=O)N[C@@H](C(C)C)C(=O)N1
2. C#CCn1c(-c2cc(OC)c(OC)cc2Br)nc(-c2ccccc2)c1-c1ccccc1
3. COc1ccc2c(c1)nnn1c3ncccc3c(N=O)c21
4. C[C@H]1C=C(C[C@@H](O)CCCCCCCCCC[C@@H](O)[C@H]2CCC(=O)O2)C(=O)O1
5. COc1ccc2c(c1)C(=O)/C(=C/c1ccc(OCC(=O)c3ccc(Cl)cc3)cc1)O2
6. COCCNC(C(=O)c1ccccc1)c1ccccc1 (stereo unspecified)
7. NS(=O)(=O)c1ccc(CCN2C(=O)/C(=C\c3ccc(Cl)cc3)C=C2c2ccc(Oc3ccccc3)cc2)cc1

Output:
1. 22.5
2. 77.5
3. -0.558
4. 91.7
5. 105
6. 95.1
7. 76.7

Record growth per entry; entries follow.
1. COc1ccc2c(c1)C(=O)/C(=C/c1cccc(OCC(=O)c3ccccc3)c1)O2
2. Cc1cc(O[C@@H]2O[C@@H](C)[C@H](O)[C@@H](O)[C@H]2O)c2c3c(c(O[C@@H]4O[C@@H](C)[C@H](O)[C@@H](O)[C@H]4O)cc2c1)C(=O)c1c(O)cccc1C3=O

Output:
1. 37.8
2. 98.5

State the recorded growth for every item in the following list.
1. Nc1nc(Cl)cc(NCc2ccc(CNc3cc(Cl)nc(N)n3)cc2)n1
2. O=c1c2ccccc2sc2c(NCCCNCCO)nc3ccccc3c12
3. COc1ccc(Cn2cc(COc3ccc4c5ccnc(C)c5n(CCCc5ccccc5)c4c3)nn2)cc1
4. CC[C@H]1[C@@H]2C=C[C@@H]3[C@H]4C/C=C\C(=O)NCCC[C@@H]5NC(=O)/C(=C(O)/C=C/[C@@H]4C[C@@H]3[C@H]2C[C@H]1C)C5=O
5. O=C(O)c1ccc(-n2cc(/C=N/Nc3ccccc3F)c(-c3ccc(O)cc3)n2)cc1
6. CC(C)(C)OC(=O)N1CCN(CCn2cc(C(F)(F)F)c3c(Cl)ncnc32)CC1
7. Cc1cccc(CC(=O)c2ccccc2)n1
8. CCOc1ccc(NC2=C(Cl)C(=O)c3ccccc3C2=O)cc1

Output:
1. 82.5
2. 76.3
3. 111
4. 41.6
5. 80.9
6. 108
7. 83.8
8. 110

Give measured growth for every item shown.
1. O=C(Nc1ccc(-n2ccc3c(NC(=O)c4ccccc4)nccc32)cc1)c1cccc(C(F)(F)F)c1
2. CCN(CC)c1ccc(C2CC(c3cc(OC)c(OC)c(OC)c3)=NN2)cc1 (stereo unspecified)
3. NC(CSC(c1ccccc1)(c1ccccc1)c1ccc(F)cc1)C(=O)O (stereo unspecified)
4. Clc1ccc(CN2COc3c(ccc4cccnc34)C2)cc1Cl
5. O=C(Nc1ccc(-n2cc(-c3ccncc3)c(-c3ccc(O)c(Cl)c3)n2)cc1)c1ccc(Cl)c(C(F)(F)F)c1
6. O=C1OC(=O)C2C3CC(c4ccccc43)C12 (stereo unspecified)
7. O=C(Nc1cccc([N+](=O)[O-])c1)c1ccc2ccccc2c1O
8. COc1ccc2c(c1)OC(N)=C(C#N)C2c1ccc(F)c(F)c1 (stereo unspecified)

Output:
1. 52.5
2. 40.6
3. 34.9
4. 5.97
5. 61.6
6. 85.5
7. 64.2
8. 51.6

// provenance: PubChem BioAssay (NCI)
